pIC50: −log10 of the molar value.
From various publications: pIC50 for NS3 (Hepatitis C virus, UniProt A3EZJ3).

- Compound: "C=CC[C@H](NC(=O)[C@@H]1C[C@@H](Cc2ccccc2)c2c(Cl)nc(NCc3cccc(C(F)(F)F)c3)c(=O)n21)B1OC2CC3CC(C3(C)C)[C@@]2(C)O1 (some centres not stated)"
  Sign: "="
  pIC50: 6.59
- Compound: "CC(C)C[C@H](NC(=O)C1(CC2CCC2)Cc2ccccc2N1)C(=O)NC(CC(F)F)C(=O)C(=O)O (single isomer, unassigned; diastereomer 1)"
  Sign: "="
  pIC50: 4.47
- Compound: "C=CC[C@H](NC(=O)[C@@H]1C[C@@H](CCCc2cccc3ccccc23)c2c(Cl)nc(NCC)c(=O)n21)B1OC2CC3CC(C3(C)C)[C@@]2(C)O1 (some centres not stated)"
  Sign: "="
  pIC50: 6.64
- Compound: "C=CCC(NC(=O)[C@H]1CCCN1C(=O)[C@@H](NC(=O)[C@@H](NC(=O)[C@H](CCC(=O)O)NC(=O)[C@@H](N)CC(=O)O)C(C)C)C(C)C)C(=O)C(=O)CC(C)C (some centres not stated)"
  Sign: "="
  pIC50: 5.32
- Compound: "CC[C@H](NC(=O)[C@H](CC1CCCCC1)NC(=O)[C@@H](NC(=O)[C@H](CC(C)C)NC(=O)c1cnccn1)[C@@H](C)CC)C(=O)C(=O)NCC(=O)NS(=O)(=O)c1cc(Cl)cc(S(=O)(=O)NC(=O)c2ccccc2)c1"
  Sign: "="
  pIC50: 6.92
- Compound: "CC[C@H](NC(=O)[C@@H]1C[C@@](C)(NC(=O)Nc2ccc(F)cc2)c2ncc(NCc3cccc(C(F)(F)F)c3)c(=O)n21)B1OC2C3CC(C[C@]2(C)O1)C3(C)C (some centres not stated)"
  Sign: "="
  pIC50: 5.99
- Compound: "CC[C@H](NC(=O)[C@H](CC1CCCCC1)NC(=O)[C@@H](NC(=O)[C@H](CC(C)C)NC(=O)c1cnccn1)[C@@H](C)CC)C(=O)C(=O)NCC(=O)NS(=O)(=O)C(F)(F)F"
  Sign: "="
  pIC50: 6.33
- Compound: "CC(C)C[C@H](NC(=O)C1(C2CCCCC2)Cc2ccccc2N1)C(=O)NC(CC(F)F)C(=O)C(=O)O (single isomer, unassigned; diastereomer 1)"
  Sign: "="
  pIC50: 4.16
- Compound: "C=CCC(NC(=O)[C@H]1CCCN1C(=O)[C@@H](NC(=O)[C@@H](NC(=O)[C@H](CCC(=O)O)NC(=O)[C@@H](N)CC(=O)O)C(C)C)C(C)C)C(=O)C(=O)OC (some centres not stated)"
  Sign: "="
  pIC50: 5.36
- Compound: "C=CCN1C(=O)/C(=C/c2cc3c(cc2[N+](=O)[O-])OCO3)SC1=S"
  Sign: "="
  pIC50: 4.40
- Compound: "Cc1cc(S(=O)(=O)N2CCC[C@H]2C(=O)O)c(N)cc1Cl"
  Sign: "<"
  pIC50: 4.12
- Compound: "CC[C@H](C)[C@H](NC(=O)[C@H](CC(=O)O)NC(=O)[C@@H](CC(=O)O)NC(C)=O)C(=O)N[C@H](C(=O)N1CCC[C@H]1C(=O)N[C@@H](CS)C(=O)O)C(C)C"
  Sign: "="
  pIC50: 4.40
